Entries and their MIC values follow.
# Tested on: E. coli MC4100
# EXPERIMENT SUMMARY: Minimal inhibitory concentration, E. coli MC4100
# Format: cell-based
# CONDITIONS USED: 16 hour minimal inhibitory concentration at 37° C.; read-out: MIC (μM) E. coli MC4100 ara+

COMPOUND	MIC
CO[C@@H]1[C@@H](OC(N)=O)[C@@H](O)[C@H](Oc2ccc3c(O)c(NC(=O)c4cc(-c5ccccc5)cc(-c5ccccc5)c4)c(=O)oc3c2C)OC1(C)C	>200 µM
CO[C@@H]1[C@@H](OC(N)=O)[C@@H](O)[C@H](Oc2ccc3c(O)c(NC(=O)c4cc(-c5ccccc5)ccc4N)c(=O)oc3c2C)OC1(C)C	59 µM
CO[C@@H]1[C@@H](OC(N)=O)[C@@H](O)[C@H](Oc2ccc3c(O)c(NC(=O)c4cc(-c5ccccc5)c(O)cc4O)c(=O)oc3c2C)OC1(C)C	18 µM
COc1cccc(-c2cccc(C(=O)Nc3c(O)c4ccc(O[C@@H]5OC(C)(C)[C@H](OC)[C@@H](OC(N)=O)[C@H]5O)c(C)c4oc3=O)c2)c1 [Compound 45]	89 µM
CO[C@@H]1[C@@H](O)[C@@H](OC(=O)c2cccn2C)[C@H](Oc2ccc3c(O)c(NC(=O)c4ccc(O)c(CC=C(C)C)c4)c(=O)oc3c2C)OC1(C)C	>200 µM
CO[C@@H]1[C@@H](O)[C@@H](OC(=O)NC2CCCCC2)[C@H](Oc2ccc3c(O)c(NC(=O)c4ccc(O)c(CC=C(C)C)c4)c(=O)oc3c2C)OC1(C)C	>200 µM
CO[C@@H]1[C@@H](OC(N)=O)[C@@H](O)[C@H](Oc2ccc3c(O)c(NC(=O)c4cccc(-c5ccccc5C(C)C)c4)c(=O)oc3c2C)OC1(C)C	>200 µM
CO[C@@H]1[C@@H](OC(N)=O)[C@@H](O)[C@H](Oc2ccc3c(O)c(NC(=O)c4cc(O)c(O)c(-c5ccc6ccccc6c5)c4)c(=O)oc3c2C)OC1(C)C	>200 µM
CO[C@@H]1[C@@H](OC(N)=O)[C@@H](O)[C@H](Oc2ccc3c(O)c(NC(=O)c4cccc(-c5cccc(C(C)C)c5)c4)c(=O)oc3c2C)OC1(C)C	59 µM
COc1ccccc1-c1cccc(C(=O)Nc2c(O)c3ccc(O[C@@H]4OC(C)(C)[C@H](OC)[C@@H](OC(N)=O)[C@H]4O)c(C)c3oc2=O)c1	40 µM
CO[C@@H]1[C@@H](OC(N)=O)[C@@H](O)[C@H](Oc2ccc3c(O)c(NC(=O)c4ccc(O)c(-c5ccccc5)c4)c(=O)oc3c2C)OC1(C)C	26 µM
COc1cccc(-c2cccc(C(=O)Nc3c(O)c4ccc(O[C@@H]5OC(C)(C)[C@H](OC)[C@@H](OC(N)=O)[C@H]5O)c(C)c4oc3=O)c2)c1 [Compound 103]	>200 µM
CO[C@@H]1[C@@H](OC(N)=O)[C@@H](O)[C@H](Oc2ccc3c(O)c(NC(=O)c4cccc(Cc5ccccc5)c4)c(=O)oc3c2C)OC1(C)C	89 µM
CO[C@@H]1[C@@H](OC(N)=O)[C@@H](O)[C@H](Oc2ccc3c(O)c(NC(=O)c4ccc(N)c(-c5ccccc5)c4)c(=O)oc3c2C)OC1(C)C	18 µM
CO[C@@H]1[C@@H](O)[C@@H](OC(=O)NC2CCCC2)[C@H](Oc2ccc3c(O)c(NC(=O)c4ccc(O)c(CC=C(C)C)c4)c(=O)oc3c2C)OC1(C)C	>200 µM
CO[C@@H]1[C@@H](OC(N)=O)[C@@H](O)[C@H](Oc2ccc3c(O)c(NC(=O)c4cccc(-c5ccc(C(F)(F)F)cc5)c4)c(=O)oc3c2C)OC1(C)C	>200 µM
CO[C@@H]1[C@@H](OC(N)=O)[C@@H](O)[C@H](Oc2ccc3c(O)c(NC(=O)c4cccc(-c5ccc(C)cc5)c4)c(=O)oc3c2C)OC1(C)C	26 µM
CO[C@@H]1[C@@H](OC(N)=O)[C@@H](O)[C@H](Oc2ccc3c(O)c(NC(=O)c4ccc(CCc5ccccc5)cc4)c(=O)oc3c2C)OC1(C)C	40 µM
CO[C@@H]1[C@@H](OC(N)=O)[C@@H](O)[C@H](Oc2ccc3c(O)c(NC(=O)c4cc(-c5ccccc5)ccc4O)c(=O)oc3c2C)OC1(C)C	18 µM
CO[C@@H]1[C@@H](OC(N)=O)[C@@H](O)[C@H](Oc2ccc3c(O)c(NC(=O)c4cccc(-c5ccccc5)c4O)c(=O)oc3c2C)OC1(C)C	89 µM
CO[C@@H]1[C@@H](OC(N)=O)[C@@H](O)[C@H](Oc2ccc3c(O)c(NC(=O)c4cccc(-c5ccccc5N)c4)c(=O)oc3c2C)OC1(C)C	59 µM
CO[C@@H]1[C@@H](OC(N)=O)[C@@H](O)[C@H](Oc2ccc3c(O)c(NC(=O)c4ccc5c(ccn5C)c4)c(=O)oc3c2C)OC1(C)C.Cl	>200 µM

* * *

# System: S. aureus RN4220
# EXPERIMENT SUMMARY: Minimal inhibitory concentration, S. aureus RN4220
# Assay type: cell-based
# CONDITIONS USED: 16 hour minimal inhibitory concentration at 37° C.; read-out: MIC (μM) S. aureus RN4220
Entries and their MIC values follow.
EXPERIMENTAL READOUT: MIC (µM)

COMPOUND	TESTED TARGET	QUAL	MEASURED NUMBER
CO[C@@H]1[C@@H](OC(N)=O)[C@@H](O)[C@H](Oc2ccc3c(O)c(NC(C)=O)c(=O)oc3c2C)OC1(C)C	S. aureus RN4220	>	100
CO[C@@H]1[C@@H](OC(N)=O)[C@@H](O)[C@H](Oc2ccc3c(O)c(NC(=O)c4cc(-c5ccc(F)cc5)c(O)cc4O)c(=O)oc3c2C)OC1(C)C	S. aureus RN4220	=	5
CO[C@@H]1[C@@H](OC(N)=O)[C@@H](O)[C@H](Oc2ccc3c(O)c(NC(=O)c4cccc(C5CCC5)c4)c(=O)oc3c2C)OC1(C)C	S. aureus RN4220	=	11
CO[C@@H]1[C@@H](OC(N)=O)[C@@H](O)[C@H](Oc2ccc3c(O)c(NC(=O)c4cccc(-c5ccc6ccccc6c5)c4)c(=O)oc3c2C)OC1(C)C	S. aureus RN4220	=	0.19
CO[C@@H]1[C@@H](OC(N)=O)[C@@H](O)[C@H](Oc2ccc3c(O)c(NC(=O)Cc4ccccc4)c(=O)oc3c2C)OC1(C)C	S. aureus RN4220	>	100
CO[C@@H]1[C@@H](OC(N)=O)[C@@H](O)[C@H](Oc2ccc3c(O)c(NC(=O)c4ccc(CCc5ccccc5)cc4)c(=O)oc3c2C)OC1(C)C	S. aureus RN4220	=	10
CO[C@@H]1[C@@H](OC(N)=O)[C@@H](O)[C@H](Oc2ccc3c(O)c(NC(=O)c4ccc(O)c(CCC(N)=O)c4)c(=O)oc3c2C)OC1(C)C	S. aureus RN4220	>	100
CO[C@@H]1[C@@H](OC(N)=O)[C@@H](O)[C@H](Oc2ccc3c(O)c(NC(=O)c4ccc(Oc5ccccc5)cc4)c(=O)oc3c2C)OC1(C)C	S. aureus RN4220	=	45
CO[C@@H]1[C@@H](OC(N)=O)[C@@H](O)[C@H](Oc2ccc3c(O)c(NC(=O)c4cc(-c5ccccc5)c(O)cc4O)c(=O)oc3c2C)OC1(C)C	S. aureus RN4220	=	10
CO[C@@H]1[C@@H](OC(N)=O)[C@@H](O)[C@H](Oc2ccc3c(O)c(NC(=O)c4cccc(-c5ccc(O)c(O)c5)c4)c(=O)oc3c2C)OC1(C)C	S. aureus RN4220	=	20
CO[C@@H]1[C@@H](OC(N)=O)[C@@H](O)[C@H](Oc2ccc3c(O)c(NC(=O)c4ccc(O)c(CC(N)=O)c4)c(=O)oc3c2C)OC1(C)C	S. aureus RN4220	>	100
CO[C@@H]1[C@@H](O)[C@@H](OC(=O)NC2CCCC2)[C@H](Oc2ccc3c(O)c(NC(=O)c4ccc(O)c(CC=C(C)C)c4)c(=O)oc3c2C)OC1(C)C	S. aureus RN4220	=	73
COC1C(OC(N)=O)C(O)C(Oc2ccc3c(O)c(NC(=O)C4CCCC(C5CCCCC5)C4)c(=O)oc3c2C)OC1(C)C (mixture of isomers)	S. aureus RN4220	=	10
CO[C@@H]1[C@@H](OC(N)=O)[C@@H](O)[C@H](Oc2ccc3c(O)c(NC(=O)c4cccc(-c5ccccc5[N+](=O)[O-])c4)c(=O)oc3c2C)OC1(C)C	S. aureus RN4220	=	77
CO[C@@H]1[C@@H](OC(N)=O)[C@@H](O)[C@H](Oc2ccc3c(O)c(NC(=O)c4ccc(O)c(-c5ccccc5)c4)c(=O)oc3c2C)OC1(C)C	S. aureus RN4220	=	3
CO[C@@H]1[C@@H](OC(N)=O)[C@@H](O)[C@H](Oc2ccc3c(O)c(NC(=O)c4cc(O)c(O)c(-c5ccc(F)cc5)c4)c(=O)oc3c2C)OC1(C)C	S. aureus RN4220	=	38
COc1cccc(-c2cccc(C(=O)Nc3c(O)c4ccc(O[C@@H]5OC(C)(C)[C@H](OC)[C@@H](OC(N)=O)[C@H]5O)c(C)c4oc3=O)c2)c1 [Compound 45]	S. aureus RN4220	=	5
CO[C@@H]1[C@@H](OC(N)=O)[C@@H](O)[C@H](Oc2ccc3c(O)c(NC(=O)c4ccc(C#Cc5ccccc5)cc4)c(=O)oc3c2C)OC1(C)C	S. aureus RN4220	=	5
CO[C@@H]1[C@@H](OC(N)=O)[C@@H](O)[C@H](Oc2ccc3c(O)c(NC(=O)c4cc(-c5ccc(F)cc5)cc(O)c4O)c(=O)oc3c2C)OC1(C)C	S. aureus RN4220	=	76
CO[C@@H]1[C@@H](O)[C@@H](OC(=O)NC(C)(C)C)[C@H](Oc2ccc3c(O)c(NC(=O)c4ccc(O)c(CC=C(C)C)c4)c(=O)oc3c2C)OC1(C)C	S. aureus RN4220	>	100
CO[C@@H]1[C@@H](OC(N)=O)[C@@H](O)[C@H](Oc2ccc3c(O)c(NC(=O)c4ccc5ccn(C)c5c4)c(=O)oc3c2C)OC1(C)C.Cl	S. aureus RN4220	=	81
CCc1ccc(-c2cccc(C(=O)Nc3c(O)c4ccc(O[C@@H]5OC(C)(C)[C@H](OC)[C@@H](OC(N)=O)[C@H]5O)c(C)c4oc3=O)c2)cc1	S. aureus RN4220	=	0.99
